Give solubility in G1/S (log2) for every item shown.
Test system: HeLa Kyoto;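 also: HeLa Kyoto cells arrested at G1/S by double thymidine block, proteins quantified by TMT10plex mass spectrometry in mild NP-40 versus SDS extracts, three biological replicates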
Experimental details: solubility in G1/S (NP-40 vs SDS abundance) (log2 ratio); higher = more soluble
Recorded conditions: cell cycle stage: G1/S
// no unit, no text: just the number

Inquiry: Tell me the measured solubility in G1/S (log2) of MCGRTSCHLPRDVLTRACAYQDRRGQQRLPEWRDPDKYCPSYNKSPQSNSPVLLSRLHFEKDADSSERIIAPMRWGLVPSWFKESDPSKLQFNTTNCRSDTVMEKRSFKVPLGKGRRCVVLADGFYEWQRCQGTNQRQPYFIYFPQIKTEKSGSIGAADSPENWEKVWDNWRLLTMAGIFDCWEPPEGGDVLYSYTIITVDSCKGLSDIHHRMPAILDGEEAVSKWLDFGEVSTQEALKLIHPTENITFHAVSSVVNNSRNNTPECLAPVDLVVKKELRASGSSQRMLQWLATKSPKKEDSKTPQKEESDVPQWSSQFLQKSPLPTKRGTAGLLEQWLKREKEEEPVAKRPYSQ [HMCES] , please.
Reply text: 0.0685

Inquiry: Report solubility in G1/S (log2) for MAEISDLDRQIEQLRRCELIKESEVKALCAKAREILVEESNVQRVDSPVTVCGDIHGQFYDLKELFRVGGDVPETNYLFMGDFVDRGFYSVETFLLLLALKVRYPDRITLIRGNHESRQITQVYGFYDECLRKYGSVTVWRYCTEIFDYLSLSAIIDGKIFCVHGGLSPSIQTLDQIRTIDRKQEVPHDGPMCDLLWSDPEDTTGWGVSPRGAGYLFGSDVVAQFNAANDIDMICRAHQLVMEGYKWHFNETVLTVWSAPNYCYRCGNVAAILELDEHLQKDFIIFEAAPQETRGIPSKKPVADYFL [PPP4C] please.
Reply text: -0.237
